SETUP CONDITIONS: in methanol, 313.15 K
PROPERTY LABEL: solubility (mole fraction)

INPUT: Tell us which solubility (mole fraction) value is on record for `O=Cc1ccc(O)cc1`
OUTPUT: 0.186

----------
SETUP CONDITIONS: in ethyl acetate, 300.65 K
PROPERTY LABEL: solubility (mole fraction)
The answer should be written as a number, with no unit following it.

INPUT: Tell us which solubility (mole fraction) value is on record for `O=Cc1ccc(O)cc1`
OUTPUT: 0.169

----------
SETUP CONDITIONS: in methanol, 305.65 K
PROPERTY LABEL: solubility (mole fraction)

INPUT: Tell us which solubility (mole fraction) value is on record for `O=Cc1ccc(O)cc1`
OUTPUT: 0.136
